Origin of measurements: patent US9302999B2

Recorded Plant response rating, Rice by entry
Tested on: rice (Oryza sativa)
Assay: Test C flooded paddy test: rice
Format: in vivo
Conditions: Flood (flooded paddy test), 125 g ai/ha; visual rating after 13 to 15 days, scale 0 to 100 (0 no effect, 100 complete control)
Number, no unit, nothing else.

Compound Structure String: Cc1nn(-c2ccccc2[N+](=O)[O-])nc1C(=O)c1cccc(C(F)(F)F)c1
Assayed Target: rice (Oryza sativa)
Observed Value: 0
--
Compound Structure String: Cc1nn(-c2ccc(C(F)(F)F)nc2)nc1C(=O)c1cccc(C(F)(F)F)c1
Assayed Target: rice (Oryza sativa)
Observed Value: 0
--
Compound Structure String: CCc1nn(-c2ccc(C(F)(F)F)cn2)nc1Cc1cccc(C(F)(F)F)c1
Assayed Target: rice (Oryza sativa)
Observed Value: 15
--
Compound Structure String: Cc1nn(-c2ccc(C(F)(F)F)cc2)nc1Cc1cccc(C(F)(F)F)c1
Assayed Target: rice (Oryza sativa)
Observed Value: 15
--
Compound Structure String: Cc1nn(-c2cccc(C(F)(F)F)c2)nc1Oc1ccnc(C(F)(F)F)c1
Assayed Target: rice (Oryza sativa)
Observed Value: 20

-- ask Using known records, supply Plant response rating, Rice for `Cc1nn(-c2ccc(F)cc2)nc1Cc1ccnc(OCC(F)(F)F)c1`
-- reply 0

-- ask Consider the compound `Cc1nn(-c2ccncc2)nc1C(=O)c1cccc(C(F)(F)F)c1` . State its measured Plant response rating, Rice.
-- reply 0

-- ask Dear colleague, please send me the reported Plant response rating, Rice for `Cc1nn(-c2cccc([N+](=O)[O-])c2)nc1C(=O)c1cccc(C(F)(F)F)c1` when you can.
-- reply 0
